Reference for the values: ChEMBL document CHEMBL5390198

# System: A549
# assay info: cells
# Assay type: functional
# test settings: Homo sapiens, time 24-72 hrs
# Description: Antiproliferative activity against human A549 cells assessed as inhibition of cell growth at 10 uM measured after 24 to 72 hrs by SRB method relative to control
Each entry below carries its recorded inhibition at 10 µM.
Please reply with the bare figure in % and do not write the unit itself.

Solved cases (3 shown):
{"columns": ["compound", "measurement units", "inhibition at 10 µM"],
 "data": [
  ["COc1cc2c(c(OC)c1OC)CCC(c1cccc(NC(=O)c3ccccc3Br)c1)O2 (stereo not given)", "%", 13.8],
  ["COc1cc2c(c(OC)c1OC)CCC(c1cccc(NC(=O)c3ccc(C#N)cc3)c1)O2 (stereo not given)", "%", 29.4],
  ["COc1ccc(C(=O)Nc2cccc(C3CCc4c(cc(OC)c(OC)c4OC)O3)c2)cc1 (stereo not given)", "%", 56.6]
]}

Given the compound COc1cc2c(c(OC)c1OC)CCC(c1cccc(NC(=O)c3ccccc3)c1)O2 (stereo not given) , write its reported inhibition at 10 µM.
19.5

Answer with the recorded inhibition at 10 µM for the compound listed here: COc1ccccc1NC(=O)c1cccc(C2CCc3c(cc(OC)c(OC)c3OC)O2)c1 (stereo not given)
9.57

Find the measured inhibition at 10 µM of COc1cc2c(c(OC)c1OC)CCC(c1cccc(NC(=O)C(C)C)c1)O2 (stereo not given) and report it.
10.7

Determine from records and report inhibition at 10 µM for COc1cc2c(c(OC)c1OC)CCC(c1cccc(C(=O)Nc3ccccc3)c1)O2 (stereo not given)
15.8

Write down inhibition at 10 µM measured for item COc1cc2c(c(OC)c1OC)CCC(c1cccc(NC(=O)c3cccc(Cl)c3)c1)O2 (stereo not given)
15

Tell me measured inhibition at 10 µM for COc1cc2c(c(OC)c1OC)CCC(c1cccc(C(=O)Nc3ccccc3Br)c1)O2 (stereo not given) please.
18.9

Given the compound COc1cccc(NC(=O)c2cccc(C3CCc4c(cc(OC)c(OC)c4OC)O3)c2)c1 (stereo not given) , write its reported inhibition at 10 µM.
29.2

Name the recorded inhibition at 10 µM of the compound listed here: COc1cc2c(c(OC)c1OC)CCC(c1cccc(NC(=O)c3cccc(Br)c3)c1)O2 (stereo not given)
18.8

Determine from records and report inhibition at 10 µM for COc1cccc(C(=O)Nc2cccc(C3CCc4c(cc(OC)c(OC)c4OC)O3)c2)c1 (stereo not given)
22.1

Let me know recorded inhibition at 10 µM for COc1cc(C(=O)Nc2cccc(C3CCc4c(cc(OC)c(OC)c4OC)O3)c2)cc(OC)c1OC (stereo not given) , thanks.
27.6

State its inhibition at 10 µM: COc1cc2c(c(OC)c1OC)CCC(c1cccc(C(=O)NC(C)C)c1)O2 (stereo not given)
1.14

Report inhibition at 10 µM for COc1cc2c(c(OC)c1OC)CCC(c1cccc(C(=O)Nc3ccc(Br)cc3)c1)O2 (stereo not given)
35.8

* * *

# Test system: NCI-H522
# assay info: Antiproliferative activity against human NCI-H522 cells assessed as inhibition of cell growth at 10 uM measured after 24 to 72 hrs by SRB method relative to control
# Format: functional
# test settings: time 24-72 hrs
assay endpoint: inhibition at 10 µM (%)
Numeric only. Scale: %

{"columns": ["compound", "assay endpoint", "experimental value"],
 "data": [
  ["COc1cc2c(c(OC)c1OC)CCC(c1cccc(NC(=O)c3ccccc3Br)c1)O2 (centres undefined)", "inhibition at 10 µM", 20.7],
  ["COc1cc2c(c(OC)c1OC)CCC(c1cccc(C(=O)Nc3cccc(Br)c3)c1)O2 (centres undefined)", "inhibition at 10 µM", 51.2],
  ["COc1cc2c(c(OC)c1OC)CCC(c1cccc(C(=O)Nc3cccc(Cl)c3)c1)O2 (centres undefined)", "inhibition at 10 µM", 48.3]
]}

Determine its reported inhibition at 10 µM: COc1cc2c(c(OC)c1OC)CCC(c1cccc(C(=O)Nc3ccc(Br)cc3)c1)O2 (centres undefined)
51.1

* * *

# Tested on: NCI-H522
# assay info: Antiproliferative activity against human NCI-H522 cells assessed as inhibition of cell growth at 10 uM measured after 24 to 72 hrs by SRB method relative to control
# Format: functional
# test settings: time 24-72 hrs
Below, each entry is listed with its recorded inhibition at 10 µM.
The response must be a number in % with no trailing unit.

The following compounds have reported results that may help.
{"columns": ["compound", "experimental value"],
 "data": [
  ["COc1cc2c(c(OC)c1OC)CCC(c1cccc(NC(=O)c3cccc(Cl)c3)c1)O2 (centres undefined)", 37.9],
  ["COc1cc2c(c(OC)c1OC)CCC(c1cccc(C(=O)Nc3ccccc3)c1)O2 (centres undefined)", 38],
  ["COc1cc2c(c(OC)c1OC)CCC(c1cccc(C(=O)Nc3ccc(C#N)cc3)c1)O2 (centres undefined)", 61.6]
]}

Note: attention shifts to another entry.
Return reported inhibition at 10 µM. Input compound: COc1cc(C(=O)Nc2cccc(C3CCc4c(cc(OC)c(OC)c4OC)O3)c2)cc(OC)c1OC (centres undefined)
56.8
